- Test system: Caenorhabditis elegans N2 infected with Nematocida parisii ERTm1
- assay.info: progeny production relative to DMSO uninfected control; higher = more progeny despite microsporidia infection (inhibition of infection with low host toxicity)
- test.conditions: infection time 6 days; 100 µM
// label = True if progeny production is not less than 10%, otherwise False

>  <compound>
CSc1ccc2c(c1)C(N1CCN(C)CC1)Cc1ccccc1S2 (stereo not given)

>  <target.under.test>
Caenorhabditis elegans N2 infected with Nematocida parisii ERTm1

>  <label>
True

$$$$
>  <compound>
Nc1nc2c(ncn2COCCO)c(=O)[nH]1

>  <target.under.test>
Caenorhabditis elegans N2 infected with Nematocida parisii ERTm1

>  <label>
False

$$$$
>  <compound>
CC(C)(C)NC(=O)[C@@H]1CN(Cc2cnc3occc3c2)CCN1C[C@@H](O)C[C@@H](Cc1ccccc1)C(=O)N[C@H]1c2ccccc2C[C@H]1O

>  <target.under.test>
Caenorhabditis elegans N2 infected with Nematocida parisii ERTm1

>  <label>
False

$$$$
>  <compound>
Cc1cc(O)c2c(c1)C(=O)c1c(I)c(O)c(I)c(O)c1C2=O

>  <target.under.test>
Caenorhabditis elegans N2 infected with Nematocida parisii ERTm1

>  <label>
True

$$$$

Moving on to the next compound.
Reported progeny production reaches at least 10% for "Nc1nc(=O)c(Br)c(-c2ccccc2)[nH]1" ?
False

Recorded values, source the supplement of paper PMC10732440.
